target: T1, human G-protein-coupled receptor family C group 5 member D (GPRC5D) (human, UniProt Q9NZD1 1-345); experiment: FACS, CHO-K1/GPRC5D
T1 construct: whole, on cells; also called human GPRC5D protein
T1 sequence (Q9NZD1 whole entry): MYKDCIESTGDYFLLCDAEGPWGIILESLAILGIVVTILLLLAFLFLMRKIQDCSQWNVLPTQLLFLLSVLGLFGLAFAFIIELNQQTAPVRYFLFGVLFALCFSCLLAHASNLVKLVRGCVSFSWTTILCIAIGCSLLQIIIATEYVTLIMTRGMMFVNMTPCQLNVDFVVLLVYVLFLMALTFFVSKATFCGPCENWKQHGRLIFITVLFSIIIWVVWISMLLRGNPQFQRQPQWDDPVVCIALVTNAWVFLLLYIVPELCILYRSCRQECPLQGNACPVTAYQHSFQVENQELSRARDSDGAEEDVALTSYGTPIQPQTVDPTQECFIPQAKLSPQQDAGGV
endpointLabel: Top

37-H2L3 (antibody, V domains shown, humanized 37B9C4, VH v2 x VL v3) VH: EVQLVESGGGLVQPGGSLRLSCAASGFTFSDYWMNWVRQSPGKGLEWVAEIRLKSNNYATHYAESVKGRFTISRDNAKSSLYLQMNSLRAEDTAVYYCTRPLLWFRRYYAMDYWGQGTLVTVSS VL: DIQMTQSPSSLSASVGDRITITCSASQGISNYLNWYQQKPGKTVKLLIYYTSSLHSGVPSRFSGSGSGTDYTLTISSLQPEDFATYYCQQYSKLPFTFGSGTKLEIK | 168000

Given the binder 37-H1L2 (antibody, V domains shown, humanized 37B9C4, VH v1 x VL v2) VH: EVQLVESGGGLVQPGGSLRLSCAASGFTFSDYWMNWVRQAPGKGLEWVAEIRLKSNNYATHYAESVKGRFTISRDNAKNSLYLQMNSLRAEDTAVYYCARPLLWFRRYYAMDYWGQGTLVTVSS VL: DIQMTQSPSSLSASVGDRVTITCSASQGISNYLNWYQQKPGKTVKLLIYYTSSLHSGVPSRFSGSGSGTDYTLTISSLQPEDFATYYCQQYSKLPFTFGQGTKLEIK , what is its reported Top?
182000

Data origin: patent US12281162
